target-under-test: NOS2 (Homo sapiens)
test-protocol: 14-C-L-arginine to 14-C-L-citrulline conversion by purified recombinant NOS2
Assay type: biochemical
condition-details: purified recombinant enzyme, 60 min, 37°C
Use true when the recorded Estimated ED50 NOS2 is no lower than 30 µM; use false when it is lower.

compound	class-name
C/C1=C2N=C(/C=C3N=C(/C(C)=C4\[N-]C(C(CC(N)=O)C4(C)CCC(=O)NCC(C)OP(=O)([O-])OC4C(CO)OC(n5cnc6cc(C)c(C)cc65)C4O)C4(C)N=C1C(CCC(N)=O)C4(C)CC(N)=O)C(CCC(N)=O)C\3(C)C)C(CCC(N)=O)C/2(C)CC(N)=O.NC(CCC(=O)NC(C[S-])C(=O)NCC(=O)O)C(=O)O.[Co+3] (centres unmarked)	false
CC1(C)N([O])C(c2ccc(C(=O)[O-])cc2)=[N+]([O-])C1(C)C.[K+]	true
C/C1=C2/[N-][C@H]([C@H](CC(N)=O)[C@@]2(C)CCC(=O)NC[C@@H](C)O)[C@]2(C)N=C(/C(C)=C3N=C(/C=C4N=C1[C@@H](CCC(N)=O)C\4(C)C)[C@@H](CCC(N)=O)[C@]\3(C)CC(N)=O)[C@@H](CCC(N)=O)[C@]2(C)CC(N)=O.[Co+3] [Cobinamide]	true
C/C1=C2/[N-]C([C@H](CC(N)=O)[C@@]2(C)CCC(=O)NCC(C)O)[C@]2(C)N=C(/C(C)=C3N=C(/C=C4N=C1[C@@H](CCC(N)=O)C\4(C)C)[C@@H](CCC(N)=O)[C@]\3(C)CC(N)=O)[C@@H](CCC(N)=O)[C@]2(C)CC(N)=O.[C-]#N.[C-]#N.[Co] (some centres unmarked) [Dicyanocobinamide]	false
C/C1=C2/[N-][C@H]([C@H](CC(N)=O)[C@@]2(C)CCC(=O)NC[C@@H](C)OP(=O)([O-])O[C@H]2[C@@H](O)[C@@H](n3cnc4cc(C)c(C)cc43)O[C@@H]2CO)[C@]2(C)N=C(/C(C)=C3N=C(/C=C4N=C1[C@@H](CCC(N)=O)C\4(C)C)[C@@H](CCC(N)=O)[C@]\3(C)CC(N)=O)[C@@H](CCC(N)=O)[C@]2(C)CC(N)=O.[Co+3].[OH-] [Hydroxocobalamin]	false

Reference source: paper PMC2745708
